- System: HOP-62 NSCLC
- experiment description: NCI tumour cell line growth inhibition, 48 h
parameter measured: GI50

1) O=C1/C(=C/c2cccc(Br)c2)COc2ccc(O)c(O)c21 | 1840 nM
2) Nc1ncccc1-c1nc2ccc(-c3ccccc3)nc2n1-c1ccc(C2(N)CCC2)cc1 | 1900 nM
3) O=c1c(O)cccn1CCCN(CCCn1cccc(O)c1=O)CCn1cccc(O)c1=O | 4350 nM
4) CC(=O)O.CC(=O)O.CC(=O)O.CC(=O)O.[Rh].[Rh] | 28800 nM
5) CC(=O)OC(C)C(OC(C)=O)C(OC(C)=O)C(/C=C/C1CC=CC(=O)O1)OC(C)=O (configuration not stated) | 37800 nM
6) Oc1c(Cl)cc(Cl)c2cccnc12 | 2240 nM
7) COc1cc(OC)cc(-c2n/c(=C\c3c(O)[nH]c4ccc(Cl)cc34)cc3c2=Nc2ccccc2-3)c1 | 1990 nM
